Test system: E. coli BW25113
Assay: Antimicrobial activity test (growth, OD600)
Format: cell-based
Details: Escherichia coli, 20 h, 37 °C, read-out: Bacterial Viability IC50, E. coli BW25113
quantity_kind: IC50

The cases that follow already have their IC50 on record.
{"columns": ["compound", "IC50"],
 "data": [
  ["O=C(/C=C/c1csnn1)c1cc(Cl)ccc1Cl [HSI#05]", "> 100 µM"],
  ["CN(C)c1c(C(=O)O)cnc2ccccc12 [HSI#07]", "> 100 µM"],
  ["O=C(O)c1cnc2cc(Cl)ccc2c1O [HSI#14]", "31.3 µM"],
  ["O=C(/C=C/c1csnn1)c1cccc2ccccc12 [HSI#10]", "> 100 µM"],
  ["O=C(/C=C/c1csnn1)c1ccccc1Cl [HSI#01]", "> 100 µM"]
]}

Input line: I am curious: what IC50 value has been reported for O=C(O)c1cnc2ccc(Cl)cc2c1O [HSI#12] ?
Output line: 39.7 µM
